All figures here come from the RNAGym collection of RNA variant scans (doi:10.7554/elife.90254).

Below: a set of entries, each annotated with reported self-cleavage.
B1: LINE1-full (parent)
chain: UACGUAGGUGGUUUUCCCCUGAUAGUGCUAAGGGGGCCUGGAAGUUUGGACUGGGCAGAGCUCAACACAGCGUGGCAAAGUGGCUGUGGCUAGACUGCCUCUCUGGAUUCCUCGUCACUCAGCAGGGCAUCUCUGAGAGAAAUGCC

# Variants of: B1
# METHOD_DESCRIPTION: self-cleavage, relative activity (ratio to wild type); higher = more cleavage; in vitro, sequencing; the parent is a self-cleaving ribozyme
Format: numeric value only, no unit, no commentary.

Previously resolved entries follow.
>>> print(df.to_string())
   sequence_variant  observed_value
0         U26A U45C            1.37
1         U15G U29C            1.05
2         U29A U85C            0.29

Input line: State, in one line, measured self-cleavage of U102C A138G
Output line: 1.42

Input line: Hello, please tell me recorded self-cleavage for this one: A50G C113A
Output line: 0.35

Input line: Name the recorded self-cleavage of the item A124U A138G in your answer.
Output line: 1.79

Input line: Indicate its recorded self-cleavage; the variant in question is U52G A124G
Output line: 1.57

Input line: Give the reported self-cleavage for this variant. U62A G83A
Output line: 0.05

Input line: Provide only the value of recorded self-cleavage for U73G A124U
Output line: 1.36

Input line: Answer with the recorded self-cleavage for the variant listed here: C28U A117G
Output line: 1.58

Input line: Consider the variant U29C U62A and give its recorded self-cleavage.
Output line: 0.03

Input line: Read the entry U87C C146A and write its reported self-cleavage.
Output line: 0.2

Input line: Give the value of self-cleavage reported for the following: G8A U112C
Output line: 1.03

Input line: Give reported self-cleavage value for U46C G106A
Output line: 1.22

Input line: Please report the measured self-cleavage for U23C A136G
Output line: 1.27

Input line: Please look at this variant and report its self-cleavage: U13C A142G
Output line: 1.3

Input line: Give reported self-cleavage value for G11C A50G
Output line: 0.71

Input line: Supply self-cleavage value. Item: U39C A92U
Output line: 0.58

Input line: Please list self-cleavage recorded for the variant U73A G93U
Output line: 0.03

Input line: Look up and report measured self-cleavage for this entry: U1C
Output line: 0.86

Input line: Recall and state the measured self-cleavage for C56A C120U .
Output line: 0.17

Input line: Quick one: give measured self-cleavage for U39A A67U
Output line: 0.07
